biological target: Glucocorticoid receptor (Rattus norvegicus, UniProt P06536); assay: Agonist activity at glucocorticoid receptor in rat INS-1 832/13 cells transfected with CCL2-promoter luciferase plasmid construct assessed as reduction in IL-1 beta induced inflammation by luciferase reporter gene assay
Sequence (P06536 whole entry): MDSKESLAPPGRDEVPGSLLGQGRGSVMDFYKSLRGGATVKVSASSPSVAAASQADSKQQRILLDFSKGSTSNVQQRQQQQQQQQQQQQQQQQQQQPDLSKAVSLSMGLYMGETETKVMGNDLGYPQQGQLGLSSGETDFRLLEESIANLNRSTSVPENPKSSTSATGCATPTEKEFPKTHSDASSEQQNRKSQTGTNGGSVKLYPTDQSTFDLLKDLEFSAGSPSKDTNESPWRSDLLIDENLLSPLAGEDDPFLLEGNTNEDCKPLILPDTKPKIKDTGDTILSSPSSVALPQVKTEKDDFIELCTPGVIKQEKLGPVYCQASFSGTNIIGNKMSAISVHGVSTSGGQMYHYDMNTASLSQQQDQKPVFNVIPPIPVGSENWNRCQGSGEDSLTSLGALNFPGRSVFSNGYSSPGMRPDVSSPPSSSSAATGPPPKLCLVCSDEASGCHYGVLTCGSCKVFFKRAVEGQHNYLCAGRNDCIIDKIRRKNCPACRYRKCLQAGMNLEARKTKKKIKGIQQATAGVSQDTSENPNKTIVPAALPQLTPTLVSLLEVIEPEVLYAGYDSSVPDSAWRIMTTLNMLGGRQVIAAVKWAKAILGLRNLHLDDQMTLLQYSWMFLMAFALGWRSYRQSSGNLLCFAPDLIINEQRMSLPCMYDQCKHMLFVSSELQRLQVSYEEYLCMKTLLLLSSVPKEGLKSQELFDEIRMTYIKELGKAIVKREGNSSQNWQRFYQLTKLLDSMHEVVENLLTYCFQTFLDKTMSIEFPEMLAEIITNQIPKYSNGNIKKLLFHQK
pIC50: −log10 of the molar value.
MEASUREMENT LABEL: pIC50

Consider the worked cases shown below.
MOLECULE	MEASUREMENT LABEL	REPORTED MEASUREMENT
COc1ccc(-n2ncc3c2C=C2CCC[C@H]([C@H](C)O)[C@@]2(C)C3)cc1	pIC50	9.80
COc1ccc(-n2ncc3c2C=C2CCC[C@H](C(C)(O)c4ccsc4)[C@@]2(C)C3)cc1 (single isomer, unassigned)	pIC50	5.80
COc1cc([C@H](O)[C@H]2CCCC3=Cc4c(cnn4-c4ccc(F)cc4)C[C@@]32C)cc(F)c1F	pIC50	7.80
C[C@H](O)[C@H]1CCCC2=Cc3c(cnn3-c3ccc(F)cc3)C[C@@]21C	pIC50	8.20
CC(C)(C)[C@H](O)[C@H]1CCCC2=Cc3c(cnn3-c3ccc(F)cc3)C[C@@]21C	pIC50	9.60

1 = Cc1ccc(-n2ncc3c2C=C2CCC[C@H](C(C)(C)O)[C@@]2(C)C3)cc1
2 = Cc1ccc(-n2ncc3c2C=C2CCC[C@H]([C@@H](O)c4ccsc4)[C@@]2(C)C3)cc1
Exercise: // pick larger pIC50 from pair: 1 vs 2 Label of pick, please.
Key: 2
(2: 7.40, 1: 7.20)

a = Cc1ccc(-n2ncc3c2C=C2CCC[C@H]([C@@H](O)c4ccccc4)[C@@]2(C)C3)cc1
b = Cc1ccc(-n2ncc3c2C=C2CCC[C@H]([C@H](C)O)[C@@]2(C)C3)cc1
c = COc1ccc(-n2ncc3c2C=C2CCC[C@H](C(C)(C)O)[C@@]2(C)C3)cc1
Exercise: Reorder the items by pIC50, least to greatest. Rank the items, then write their labels in that order.
Key: c, a, b

A = COc1ccc(-n2ncc3c2C=C2CCC[C@H](C(C)(O)c4ccc(F)cc4)[C@@]2(C)C3)cc1 (single isomer, unassigned)
B = C[C@]12Cc3cnn(-c4ccc(F)cc4)c3C=C1CCC[C@@H]2[C@@H](O)c1ccsc1
Exercise: Look at A and B . Which one has the lower recorded pIC50 number? Label of pick, please.
Key: A

I = C[C@]12Cc3cnn(-c4ccc(F)cc4)c3C=C1CCC[C@@H]2[C@](C)(O)c1ccccc1
II = Cc1ccc(-n2ncc3c2C=C2CCC[C@H](C(C)(O)c4ccccc4)[C@@]2(C)C3)cc1 (single isomer, unassigned)
Exercise: // pick larger pIC50 from pair: I vs II Label of pick, please.
Key: I

1 = COc1ccc(-n2ncc3c2C=C2CCC[C@H]([C@@H](O)c4ccccc4)[C@@]2(C)C3)cc1
2 = Cc1ccc(-n2ncc3c2C=C2CCC[C@H](C(C)(O)c4ccsc4)[C@@]2(C)C3)cc1 (single isomer, unassigned)
3 = COc1cc([C@@](C)(O)[C@H]2CCCC3=Cc4c(cnn4-c4ccc(F)cc4)C[C@@]32C)cc(F)c1F
4 = COc1cc([C@H](O)[C@H]2CCCC3=Cc4c(cnn4-c4ccc(C)cc4)C[C@@]32C)cc(F)c1F
5 = Cc1ccc(-n2ncc3c2C=C2CCC[C@H](C(C)(O)c4ccc(F)cc4)[C@@]2(C)C3)cc1 (single isomer, unassigned)
Exercise: Reorder the items by pIC50, least to greatest. Rank the items, then write their labels in that order.
Key: 1, 5, 4, 2, 3

I = COc1ccc(-n2ncc3c2C=C2CCC[C@H](C(C)(O)c4cc(F)c(F)c(OC)c4)[C@@]2(C)C3)cc1 (single isomer, unassigned)
II = C[C@]12Cc3cnn(-c4ccc(F)cc4)c3C=C1CCC[C@@H]2[C@@H](O)c1ccccc1
III = COc1ccc(-n2ncc3c2C=C2CCC[C@H](C(C)(O)c4ccccc4)[C@@]2(C)C3)cc1 (single isomer, unassigned)
Exercise: Reorder the items by pIC50, least to greatest. Rank the items, then write their labels in that order.
Key: I, III, II

a = C[C@]12Cc3cnn(-c4ccc(F)cc4)c3C=C1CCC[C@@H]2[C@@H](O)CC#N
b = C[C@]12Cc3cnn(-c4ccc(F)cc4)c3C=C1CCC[C@@H]2[C@](C)(O)c1ccc(F)cc1
c = CC(C)(O)[C@H]1CCCC2=Cc3c(cnn3-c3ccc(F)cc3)C[C@@]21C
Exercise: Rank order required: pIC50, descending. Rank the items, then write their labels in that order.
Key: b, c, a
(b: 8.30, c: 7.40, a: 5.80)

a = COc1ccc(-n2ncc3c2C=C2CCC[C@H]([C@@H](O)c4ccsc4)[C@@]2(C)C3)cc1
b = COc1ccc(-n2ncc3c2C=C2CCC[C@H]([C@@H](O)c4ccc(F)cc4)[C@@]2(C)C3)cc1
Exercise: // pick larger pIC50 from pair: a vs b Label of pick, please.
Key: b
(b: 7.10, a: 6.30)
